systemTested: LIMK1KD (Homo sapiens, UniProt P53667)
Construct: His6 (N, cleaved yes); made in house; host or cells: baculovirus; Sf9 for virus, TriEx insect cells for expression
Sequence (P53667 330-637): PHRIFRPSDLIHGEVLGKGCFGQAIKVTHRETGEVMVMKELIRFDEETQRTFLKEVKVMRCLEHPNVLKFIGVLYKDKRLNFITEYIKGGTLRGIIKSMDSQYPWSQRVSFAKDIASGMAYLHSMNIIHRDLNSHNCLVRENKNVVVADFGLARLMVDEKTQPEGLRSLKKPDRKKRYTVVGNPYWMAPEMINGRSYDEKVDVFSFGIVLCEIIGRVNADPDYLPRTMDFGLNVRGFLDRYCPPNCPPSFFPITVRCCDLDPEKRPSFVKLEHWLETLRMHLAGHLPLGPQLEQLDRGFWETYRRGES
methodSummary: Differential (dynamic) scanning fluorimetry (DSF) assay, LIMK1KD
Type: binding
conditionDescription: 2 µM LIMK1KD, compound 10 µM, single shot; read-out: TM Shift LIMK1 (K)
Counter-ions that a name gives are not always drawn.
quantityKind: ΔTm at 10 µM (°C)
Only the number, expressed in °C, is required.

Worked cases, answers included:
- molecule: "Cc1cn(-c2cc(NC(=O)c3ccc(C)c(Nc4nccc(-c5cccnc5)n4)c3)cc(C(F)(F)F)c2)cn1"
  quantityKind: "ΔTm at 10 µM"
  unitOfMeasurement: "°C"
  resultNumber: 0.5
- molecule: "COc1cc2nccc(Oc3ccc(NC(=O)Nc4cc(C)on4)c(Cl)c3)c2cc1OC"
  quantityKind: "ΔTm at 10 µM"
  unitOfMeasurement: "°C"
  resultNumber: 1.1

Considering CCCNC(=O)Nc1ccc(Oc2ncnc3cc(OC)c(OC)cc23)cc1Cl , its ΔTm at 10 µM with LIMK1KD (Homo sapiens, UniProt P53667) was recorded as 1.9

GET /values?item= CO[C@@H](C(=O)N1Cc2n[nH]c(NC(=O)c3ccc(N4CCN(C)CC4)cc3)c2C1)c1ccccc1 &system= LIMK1KD (Homo sapiens, UniProt P53667) returns ΔTm at 10 µM: 5

Item: Cc1[nH]c(/C=C2\C(=O)Nc3ccc(S(=O)(=O)Cc4c(Cl)cccc4Cl)cc32)c(C)c1C(=O)N1CCC[C@@H]1CN1CCCC1 | System: LIMK1KD (Homo sapiens, UniProt P53667) | ΔTm at 10 µM: 1.3

// returns ΔTm at 10 µM for CCn1c(C(=O)N(C2CC2)C2CC2)cc2c3c(ncn3C)c(Nc3cc(C)n(C)n3)nc21 with LIMK1KD (Homo sapiens, UniProt P53667); value = 1.8

The recorded ΔTm at 10 µM with LIMK1KD (Homo sapiens, UniProt P53667) for O=S(=O)(c1cccc2cnccc12)N1CCCNCC1 [Fasudil (HA-1077) HCl, Fasudil] was 0.8
